Exercise: for every item that follows, state its recorded denaturant m value.
B1: Cytochrome c-551, P00099 (parent)
chain: MKPYALLSLLATGTLLAQGAWAEDPEVLFKNKGCVACHAIDTKMVGPAYKDVAAKFAGQAGAEAELAQRIKNGSQGVWGPIPMPPNAVSDDEAQTLAKWVLSQK

# Variants of: B1
# condition summary: Pseudomonas aeruginosa (strain ATCC 15692 / DSM 22644 / CIP 104116 / JCM 14847 / LMG 12228 / 1C / PRS 101 / PAO1); pH 7; 10 °C; Urea; Fluorescence; sodium phosphate 50 mM; reversible: yes; structure 451C; whole UniProt chain shown
Answers are plain numbers, in kcal/mol/M.

Sample answers from the record:
E92V 1.2
W99F 1
E92Q 1.1

We now examine a further variant.
// query Recorded denaturant m value of W78F , please.
// result 1.1

Source: FireProtDB (doi:10.1006/jmbi.2001.4728)
